Each recorded value in this set is attributed to patent US20230263822A1.

AST: recorded values
Details: rat, in vivo, sc, 50 mg/kg
e = 2'-O-(2-methoxyethyl) (MOE); d = 2'-deoxy (DNA)
Give the number; IU/L is assumed, so skip it.

Query block: Answer with reported AST of ISIS 412224: 5-10-5 MOE gapmer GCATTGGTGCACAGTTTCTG (sugars from the 5' end e5 d10 e5, backbone and methylation of C not given here)
Result block: 132

Query block: Answer with reported AST of ISIS 416859: MOE gapmer, nucleobases 1275 to 1318 of SEQ ID NO: 1 (Table 8) (antisense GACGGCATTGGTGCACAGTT; MOE gapmer, wing and gap sizes not given here)
Result block: 206

Query block: Answer with reported AST of ISIS 412223: 5-10-5 MOE gapmer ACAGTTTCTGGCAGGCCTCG (sugars from the 5' end e5 d10 e5, backbone and methylation of C not given here)
Result block: 180

Query block: Answer with reported AST of ISIS 412225: 5-10-5 MOE gapmer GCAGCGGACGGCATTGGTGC (sugars from the 5' end e5 d10 e5, backbone and methylation of C not given here)
Result block: 108

Query block: Answer with reported AST of ISIS 416863: MOE gapmer, nucleobases 1275 to 1318 of SEQ ID NO: 1 (Table 8) (antisense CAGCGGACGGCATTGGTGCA; MOE gapmer, wing and gap sizes not given here)
Result block: 78

Query block: Answer with reported AST of ISIS 416860: MOE gapmer, nucleobases 1275 to 1318 of SEQ ID NO: 1 (Table 8) (antisense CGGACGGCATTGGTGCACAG; MOE gapmer, wing and gap sizes not given here)
Result block: 157

Query block: Answer with reported AST of ISIS 416852: MOE gapmer, nucleobases 1275 to 1318 of SEQ ID NO: 1 (Table 8) (antisense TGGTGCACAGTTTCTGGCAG; MOE gapmer, wing and gap sizes not given here)
Result block: 87

Query block: Answer with reported AST of ISIS 416867: MOE gapmer, nucleobases 1275 to 1318 of SEQ ID NO: 1 (Table 8) (antisense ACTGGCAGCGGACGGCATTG; MOE gapmer, wing and gap sizes not given here)
Result block: 126

Query block: Answer with reported AST of ISIS 416856: MOE gapmer, nucleobases 1275 to 1318 of SEQ ID NO: 1 (Table 8) (antisense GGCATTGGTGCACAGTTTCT; MOE gapmer, wing and gap sizes not given here)
Result block: 222

Query block: Answer with reported AST of ISIS 413481: 5-10-5 MOE gapmer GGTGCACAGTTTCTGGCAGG (sugars from the 5' end e5 d10 e5, backbone and methylation of C not given here)
Result block: 80

====

Assay: Hematology assays in cynomolgus monkeys (Example 45)
Assay type: in vivo
Conditions: day 36
ASSAY_READOUT: reticulocytes
Answer with the value and then the unit.

// below: answered substances
>  <SUBSTANCE>
ISIS 416858: MOE gapmer, nucleobases 1275 to 1318 of SEQ ID NO: 1 (Table 8) (antisense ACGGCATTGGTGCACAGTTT; MOE gapmer, wing and gap sizes not given here)

>  <reticulocytes>
1.6%

$$$$
>  <SUBSTANCE>
ISIS 416850: MOE gapmer, nucleobases 1275 to 1318 of SEQ ID NO: 1 (Table 8) (antisense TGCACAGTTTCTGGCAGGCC; MOE gapmer, wing and gap sizes not given here)

>  <reticulocytes>
2.2%

$$$$
>  <SUBSTANCE>
ISIS 416838: MOE gapmer, nucleobases 1018 to 1042 of SEQ ID NO: 1 (Table 6) (antisense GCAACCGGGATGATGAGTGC; MOE gapmer, wing and gap sizes not given here)

>  <reticulocytes>
1.6%

$$$$
>  <SUBSTANCE>
ISIS 417002: MOE gapmer, nucleobases 1275 to 1318 of SEQ ID NO: 1 (Table 8) (antisense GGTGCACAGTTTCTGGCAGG; MOE gapmer, wing and gap sizes not given here)

>  <reticulocytes>
1.3%

$$$$

Query block: Answer with reported reticulocytes of ISIS 416864: MOE gapmer, nucleobases 1275 to 1318 of SEQ ID NO: 1 (Table 8) (antisense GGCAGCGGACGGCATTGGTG; MOE gapmer, wing and gap sizes not given here)
Result block: 1.3%

====

percent inhibition of human Factor 11 mRNA relative to untreated control cells: recorded values
Test system: human Factor 11 mRNA
Experiment: Dose-dependent inhibition of human Factor 11 in cyano primary hepatocytes, electroporation (Example 6)
Type: cell-based
Details: 2.2 nM, ~16 hours
Give the number; % is assumed, so skip it.

>  <SUBSTANCE>
416892 (antisense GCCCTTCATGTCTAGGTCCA; 3-14-3 chimeric gapmer, further chemistry not given here) [compound 416892]

>  <SUBJECT_OF_TEST>
human Factor 11 mRNA

>  <UNIT_SPEC>
%

>  <READOUT_NUMBER>
20

$$$$
>  <SUBSTANCE>
416864 (antisense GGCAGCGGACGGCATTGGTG; 5-10-5 gapmer, further chemistry not given here) [compound 416864]

>  <SUBJECT_OF_TEST>
human Factor 11 mRNA

>  <UNIT_SPEC>
%

>  <READOUT_NUMBER>
1

$$$$

With those in mind, consider the next substance.
Query block: Answer with reported percent inhibition of human Factor 11 mRNA relative to untreated control cells of 416858 (antisense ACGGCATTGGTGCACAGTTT; 5-10-5 gapmer, further chemistry not given here) [compound 416858]
Result block: 13

====

Assay: Tolerability in CD1 mice: organ weight (Example 33)
Type: in vivo
Details: 50 mg/kg s.c. twice a week, 4 weeks, vs PBS control, normalized to body weight
ASSAY_READOUT: Percent change in spleen weight (%)
Give the number; % is assumed, so skip it.

// below: answered substances
>  <SUBSTANCE>
416838 (antisense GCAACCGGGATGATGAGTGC; 5-10-5 gapmer, further chemistry not given here) [compound 416838]

>  <UNIT_SPEC>
%

>  <Percent change in spleen weight>
−8

$$$$
>  <SUBSTANCE>
416864 (antisense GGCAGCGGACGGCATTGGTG; 5-10-5 gapmer, further chemistry not given here) [compound 416864]

>  <UNIT_SPEC>
%

>  <Percent change in spleen weight>
−2

$$$$

With those in mind, consider the next substance.
Query block: Answer with reported Percent change in spleen weight of 416826 (antisense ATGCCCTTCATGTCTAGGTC; 5-10-5 gapmer, further chemistry not given here) [compound 416826]
Result block: −5

====

System: human Factor 11 mRNA
Test: Dose-dependent inhibition of human Factor 11 in HepG2 cells, electroporation 123.46-10,000 nM (Example 31)
Type: cell-based
Conditions: electroporation, 3,333.33 nM, approx. 16 hours, relative to untreated control cells
Strand notation (5' to 3'): a small letter for the sugar, then the base; units joined by * are phosphorothioate-linked, units joined directly phosphodiester-linked; [ ] holds rarer units or linkages, { } end groups; capitals alone tell only the bases. e = 2'-O-(2-methoxyethyl) (MOE); [5mC] = 5-methylcytosine; d = 2'-deoxy (DNA)
# Percent inhibition of Factor 11 mRNA at 3,333.33 nM >= 60% gives condition met, anything below gives condition not met

Worked set:
>  <SUBSTANCE>
416860 (antisense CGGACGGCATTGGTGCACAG; 5-10-5 gapmer, further chemistry not given here) [compound 416860]

>  <LABEL>
condition not met

$$$$
>  <SUBSTANCE>
416849 (antisense eG*e[5mC]*eA*e[5mC]*eA*dG*dT*dT*dT*d[5mC]*dT*dG*dG*d[5mC]*dA*eG*eG*e[5mC]*e[5mC]*eT) [compound 416849]

>  <LABEL>
condition not met

$$$$
>  <SUBSTANCE>
416861 (antisense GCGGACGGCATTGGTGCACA; 5-10-5 gapmer, further chemistry not given here) [compound 416861]

>  <LABEL>
condition met

$$$$

Kindly consider the entry below.
Query block: // inclusive: Percent inhibition of Factor 11 mRNA at 3,333.33 nM at least 60%? input: 445504 (antisense eG*eG*e[5mC]*eA*eT*eT*dG*dG*dT*dG*d[5mC]*dA*d[5mC]*dA*eG*eT*eT*eT*e[5mC]*eT) [compound 445504]
Result block: condition not met

====

System: human Factor 11 mRNA
Test: Antisense inhibition of human Factor 11 in HepG2 cells by microwalk gapmers, lipofectin, 75 nM (Example 3)
Type: cell-based
Conditions: HepG2 cells, lipofectin, gapmers targeted to nucleobases 738 to 762 of SEQ ID NO: 1
Strand notation (5' to 3'): a small letter for the sugar, then the base; units joined by * are phosphorothioate-linked, units joined directly phosphodiester-linked; [ ] holds rarer units or linkages, { } end groups; capitals alone tell only the bases. e = 2'-O-(2-methoxyethyl) (MOE); [5mC] = 5-methylcytosine; d = 2'-deoxy (DNA)
ASSAY_READOUT: % inhibition (%)
Give the number; % is assumed, so skip it.

// below: answered substances
>  <SUBSTANCE>
416902 (antisense eT*e[5mC]*eA*dT*d[5mC]*d[5mC]*dG*dT*dG*d[5mC]*dA*dT*d[5mC]*dT*dT*dT*d[5mC]*eT*eT*eG) [compound 416902]

>  <SUBJECT_OF_TEST>
human Factor 11 mRNA

>  <% inhibition (%)>
46

$$$$
>  <SUBSTANCE>
416978 (antisense e[5mC]*eA*dT*d[5mC]*d[5mC]*dG*dT*dG*d[5mC]*dA*dT*d[5mC]*dT*dT*dT*e[5mC]*eT*eT*eG*eG) [compound 416978]

>  <SUBJECT_OF_TEST>
human Factor 11 mRNA

>  <% inhibition (%)>
76

$$$$
>  <SUBSTANCE>
416976 (antisense eT*e[5mC]*d[5mC]*dG*dT*dG*d[5mC]*dA*dT*d[5mC]*dT*dT*dT*d[5mC]*dT*eT*eG*eG*e[5mC]*eA) [compound 416976]

>  <SUBJECT_OF_TEST>
human Factor 11 mRNA

>  <% inhibition (%)>
83

$$$$
>  <SUBSTANCE>
416830 (antisense eT*e[5mC]*e[5mC]*eG*eT*dG*d[5mC]*dA*dT*d[5mC]*dT*dT*dT*d[5mC]*dT*eT*eG*eG*e[5mC]*eA) [compound 416830]

>  <SUBJECT_OF_TEST>
human Factor 11 mRNA

>  <% inhibition (%)>
81

$$$$

Query block: Answer with reported % inhibition of 416831 (antisense eA*eT*e[5mC]*e[5mC]*eG*dT*dG*d[5mC]*dA*dT*d[5mC]*dT*dT*dT*d[5mC]*eT*eT*eG*eG*e[5mC]) [compound 416831]
Result block: 91

Query block: Answer with reported % inhibition of 416901 (antisense e[5mC]*eA*eT*d[5mC]*d[5mC]*dG*dT*dG*d[5mC]*dA*dT*d[5mC]*dT*dT*dT*d[5mC]*dT*eT*eG*eG) [compound 416901]
Result block: 65

Query block: Answer with reported % inhibition of 416903 (antisense eG*eT*e[5mC]*dA*dT*d[5mC]*d[5mC]*dG*dT*dG*d[5mC]*dA*dT*d[5mC]*dT*dT*dT*e[5mC]*eT*eT) [compound 416903]
Result block: 88

Query block: Answer with reported % inhibition of 416898 (antisense e[5mC]*e[5mC]*eG*dT*dG*d[5mC]*dA*dT*d[5mC]*dT*dT*dT*d[5mC]*dT*dT*dG*dG*e[5mC]*eA*eT) [compound 416898]
Result block: 88

Query block: Answer with reported % inhibition of 416899 (antisense eT*e[5mC]*e[5mC]*dG*dT*dG*d[5mC]*dA*dT*d[5mC]*dT*dT*dT*d[5mC]*dT*dT*dG*eG*e[5mC]*eA) [compound 416899]
Result block: 86
